# target: T1, wild type human CD47 (Acro Biosystems, cat. no. CD7-H5227) (human, UniProt Q08722 19-139)
# T1 construct: Bought protein used as SPR analyte; also called Human CD47 wt; wild-type CD47
# T1 sequence (Q08722 19-139 limits assumed): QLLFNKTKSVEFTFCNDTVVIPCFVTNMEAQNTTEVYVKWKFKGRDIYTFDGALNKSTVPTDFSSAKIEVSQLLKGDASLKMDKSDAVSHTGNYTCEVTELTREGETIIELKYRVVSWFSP
# test description: SPR, IgG captured, CD47 in flow; exp 3;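 also: biacore T200 SPR with antibodies taken from supernatants of transfected HEK293 cells, C33G mutein avoiding IgV homodimers for monovalent affinity, Kd derived from association and dissociation rate constants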
assay readout: Kd (nM)
Give bare numbers, in nM.

These recorded examples may help you get a feel for the data.
binder: 108VH5.M16 / 108VL1.M5 (antibody, human IgG4 S228P, kappa, V domains shown, Full-length IgG4 (S228P), kappa; also called VH5.M16 VL1.M5) VH: EVQLVQSGAEVKKPGASVKVSCKASGYTFTHHWMHWVRQAPGQGLEWMGMIDASDGETRYAQKFQGRVTMTRDTSTSTVYMELSSLRSEDTAVYYCARLGRYYFDYWGQGTLVTVSS VL: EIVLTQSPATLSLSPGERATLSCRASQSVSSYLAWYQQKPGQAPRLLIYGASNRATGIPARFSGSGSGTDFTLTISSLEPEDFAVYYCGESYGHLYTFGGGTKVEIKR
Kd / nM: 2.6
//
binder: 108VH5.M18 / 108VL1.M5 (antibody, human IgG4 S228P, kappa, V domains shown, Full-length IgG4 (S228P), kappa; also called VH5.M18 VL1.M5) VH: EVQLVQSGAEVKKPGASVKVSCKASGYTFTHHWMHWVRQAPGQGLEWMGMIDASESETRYAQKFQGRVTMTRDTSTSTVYMELSSLRSEDTAVYYCARLGRYYFDYWGQGTLVTVSS VL: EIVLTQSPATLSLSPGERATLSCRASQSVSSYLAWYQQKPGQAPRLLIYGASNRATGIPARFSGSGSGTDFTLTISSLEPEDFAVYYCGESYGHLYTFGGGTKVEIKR
Kd / nM: 12

With those in mind, consider the next binder.
// Kd lookup, key: chimeric antibody 108C10A6 (antibody, V domains shown, Chimeric antibody with mouse variable domains; captured through human Fc; also called VH / VL) VH: QMQLQQSGPQLVRPGASVKISCKTSGYSFTHHWIHWMKQRPGQGLEWIGMIDPSDSETRLSQKFKDKATLTVDASSSTAYMQLNSPTSEDSALYFCARLGRYYFDYWGQGTTLTVSS VL: NIVMTQSPRSMSMSVGERVTLSCKASENVGTYISWYQQKPDQSPKLLIYGASNRYTGVPDRFTGSGSGTDFTLTISTVQAEDLADYHCGESYGHLYTFGGGTKLEIK 0.2

The measurements presented in this section are drawn from patent US20260132197A1.
